Measured minimal inhibitory concentration (MIC), EG 245, listed per entry for reference.
- Tested on: Enterococcus gallinarum 245
- Assay Protocol: MIC, standard broth micro-dilution assay, EG 245
- Assay type: cell-based
Readout Kind: minimal inhibitory concentration (MIC), EG 245

Molecule	Experimental Result
CC(C)CCC(=O)NC1C(=O)NC(CC(N)=O)C(=O)NC2C(=O)NC3C(=O)NC(C(=O)NC(C(=O)O)c4cc(O)cc(O)c4-c4cc3ccc4O)C(OC3CC(C)(N)C(O)C(C)O3)c3ccc(c(Cl)c3)Oc3cc2cc(c3OC2OC(CO)C(O)C(O)C2OC2CC(C)(NCc3ccc(-c4ccccc4)cc3)C(O)C(C)O2)Oc2ccc(cc2Cl)C1O (stereo not drawn) [Example 5]	0.25
CC1OC(OC2c3ccc(c(Cl)c3)Oc3cc4cc(c3OC3OC(CO)C(O)C(O)C3OC3CC(C)(NCc5ccc(-c6ccccc6)cc5)C(O)C(C)O3)Oc3ccc(cc3Cl)C(O)C(NC(=O)C(CCCCNC(=O)OC(C)(C)C)NC(=O)OC(C)(C)C)C(=O)NC(CC(N)=O)C(=O)NC4C(=O)NC3C(=O)NC2C(=O)NC(C(=O)O)c2cc(O)cc(O)c2-c2cc3ccc2O)CC(C)(N)C1O (stereo not drawn) [Example 30]	2

* * *

Readings of minimal inhibitory concentration (MIC), SA 446 for the listed compounds
- Tested on: Staphylococcus aureus 446
- Assay Protocol: MIC, standard broth micro-dilution assay, SA 446
- Assay type: cell-based
Readout Kind: minimal inhibitory concentration (MIC), SA 446

Compound	Experimental Result
CC1OC(OC2c3ccc(c(Cl)c3)Oc3cc4cc(c3OC3OC(CO)C(O)C(O)C3OC3CC(C)(NCc5ccc(-c6ccccc6)cc5)C(O)C(C)O3)Oc3ccc(cc3Cl)C(O)C(NC(=O)C3CCCN3)C(=O)NC(CC(N)=O)C(=O)NC4C(=O)NC3C(=O)NC2C(=O)NC(C(=O)O)c2cc(O)cc(O)c2-c2cc3ccc2O)CC(C)(N)C1O (centres unmarked) [Example 32]	1
CC(C)CC(N)C(=O)NC1C(=O)NC(CC(N)=O)C(=O)NC2C(=O)NC3C(=O)NC(C(=O)NC(C(=O)O)c4cc(O)cc(O)c4-c4cc3ccc4O)C(OC3CC(C)(N)C(O)C(C)O3)c3ccc(c(Cl)c3)Oc3cc2cc(c3OC2OC(CO)C(O)C(O)C2O)Oc2ccc(cc2Cl)C1O (centres unmarked)	0.5

* * *

- System: Haemophilus influenzae RD
- Assay Protocol: MIC, standard broth micro-dilution assay, HFRD
- Assay type: cell-based
Entries annotated with measured minimal inhibitory concentration (MIC), HFRD
Readout Kind: minimal inhibitory concentration (MIC), HFRD

Compound	Experimental Result
CC1OC(OC2c3ccc(c(Cl)c3)Oc3cc4cc(c3OC3OC(CO)C(O)C(O)C3OC3CC(C)(N)C(O)C(C)O3)Oc3ccc(cc3Cl)C(O)C(NC(=O)C(Cc3ccccc3)N(C)C(=O)OC(C)(C)C)C(=O)NC(CC(N)=O)C(=O)NC4C(=O)NC3C(=O)NC2C(=O)NC(C(=O)O)c2cc(O)cc(O)c2-c2cc3ccc2O)CC(C)(N)C1O (stereo not drawn) [Example 40]	>64
CC1OC(OC2c3ccc(c(Cl)c3)Oc3cc4cc(c3OC3OC(CO)C(O)C(O)C3OC3CC(C)(NCc5ccc(-c6ccccc6)cc5)C(O)C(C)O3)Oc3ccc(cc3Cl)C(O)C(NC(=O)c3ccc(-c5ccccc5)cc3)C(=O)NC(CC(N)=O)C(=O)NC4C(=O)NC3C(=O)NC2C(=O)NC(C(=O)O)c2cc(O)cc(O)c2-c2cc3ccc2O)CC(C)(N)C1O (stereo not drawn) [Example 6]	>64
CC1OC(OC2C(Oc3c4cc5cc3Oc3ccc(cc3Cl)[C@@H](O)[C@@H](NC(=O)[C@H]3CCCN3C(=O)OC(C)(C)C)C(=O)N[C@@H](CC(N)=O)C(=O)N[C@H]5C(=O)N[C@H]3C(=O)NC(C(=O)N[C@H](C(=O)O)c5cc(O)cc(O)c5-c5cc3ccc5O)[C@H](OC3CC(C)(N)C(O)C(C)O3)c3ccc(c(Cl)c3)O4)OC(CO)C(O)C2O)CC(C)(N)C1O (stereo partly drawn) [Example 24]	>64
